# tested_on: Menin-MLL (Homo sapiens)
# Construct: His-Menin (M1-L615 end); purchased BIORTUS BP9210
# Sequence (O00255 1-615 isoform O00255-1): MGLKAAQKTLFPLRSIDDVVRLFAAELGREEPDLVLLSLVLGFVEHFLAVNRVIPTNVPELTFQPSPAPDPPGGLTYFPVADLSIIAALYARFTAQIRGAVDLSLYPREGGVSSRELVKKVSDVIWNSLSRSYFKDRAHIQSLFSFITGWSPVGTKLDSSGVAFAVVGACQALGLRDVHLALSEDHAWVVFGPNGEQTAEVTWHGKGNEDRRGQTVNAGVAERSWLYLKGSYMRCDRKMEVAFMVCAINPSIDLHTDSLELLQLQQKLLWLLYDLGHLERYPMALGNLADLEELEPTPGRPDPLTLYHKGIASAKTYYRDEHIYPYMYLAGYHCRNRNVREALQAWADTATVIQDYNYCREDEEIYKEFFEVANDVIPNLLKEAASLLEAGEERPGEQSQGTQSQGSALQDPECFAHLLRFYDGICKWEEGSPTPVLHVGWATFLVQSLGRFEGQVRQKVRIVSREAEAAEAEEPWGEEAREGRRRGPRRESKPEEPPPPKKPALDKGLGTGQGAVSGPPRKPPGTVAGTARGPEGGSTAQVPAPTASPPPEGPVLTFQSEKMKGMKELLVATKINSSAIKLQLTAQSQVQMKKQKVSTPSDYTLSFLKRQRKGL
# method_summary: Inhibitory activity against Menin-MLL binding (fluorescence polarization)
# test_settings: fluorescence polarization; 150 nM His-Menin, 15 nM FITC-MLL; 25°C for 60 min; read-out: Menin-MLL IC50
observed_property: IC50 (nM)

(1) COCCN(C)CCCC(C(C)C)N1CC(c2cc(-c3ccc(F)cc3C(=O)N(CC(F)F)C(C)C)c3c(F)nc(C)n3c2)C1 (stereo not drawn)
(2) CC(=O)N1CCC(CN2CC(c3cc(-c4ccc(F)cc4C(=O)N4CCOC[C@H]4C)c4cnn(C)c4c3)C2)CC1
(3) CCN(C(=O)c1cc(F)ccc1-c1cc(C2CN([C@H](CCCN3CCNC4(COC4)C3)C(C)C)C2)cn2c(C)ncc12)C(C)C
Order the entries above by descending IC50. Enter labels, ranked according to the request.
2, 3, 1
(2: 217 nM, 3: 19 nM, 1: 10 nM)
